details: Ebola pseudovirus entry assay, ratio channel
This is one part of the list. Activity calls are given as the source filed them. Calls come from the whole dose curve.
observedProperty: AC50

Study these solved cases before continuing.
[[record]]
compound = "CCCCN(CCCC)CCC(O)c1cc2c(Cl)cc(Cl)cc2c2cc(C(F)(F)F)ccc12 (stereo unspecified)"
testresult = "13.7 µM (active)"

[[record]]
compound = "COc1ccccc1OCCNCC(O)COc1cccc2[nH]c3ccccc3c12 (stereo unspecified)"
testresult = "17.2 µM (active)"

[[record]]
compound = "CN(C(=O)CN(CCO)CC(=O)N(C)C(C)(C)Cc1ccccc1)C(C)(C)Cc1ccccc1"
testresult = "6.11 µM (active)"


Ask: Item CO[C@]12CC[C@@]3(C[C@@H]1[C@](C)(O)C(C)(C)C)[C@@H]1Cc4ccc(O)c5c4[C@@]3(CCN1CC1CC1)[C@H]2O5 has what recorded AC50?
Reply: 9.87 µM (active)

Ask: # input compound: Clc1ccc(C(Cn2ccnc2)OCc2ccsc2Cl)c(Cl)c1 (stereo unspecified) ; wanted: its AC50
Reply: 13.7 µM (active)

Ask: Name the recorded AC50 for CCCC(C(=O)OCCN(CC)CC)(c1ccccc1)c1ccccc1 .
Reply: 4.85 µM (active)
